MEASURED_TARGET: recombinant human OX40 fused to a His-tag (Acro Biosystems, cat. no. OX0-H5224) (human) (UniProt P43489)
Sequence (P43489 29-214 limits assumed): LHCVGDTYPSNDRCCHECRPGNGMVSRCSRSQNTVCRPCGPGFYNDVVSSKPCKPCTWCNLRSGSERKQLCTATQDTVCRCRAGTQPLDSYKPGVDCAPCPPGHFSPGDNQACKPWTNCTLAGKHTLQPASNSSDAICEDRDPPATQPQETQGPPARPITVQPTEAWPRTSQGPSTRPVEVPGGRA
ASSAY_REMARKS: BLI cross-block; first Ab (competitor): IgG1-CD134-012
Kindly state association response for each of the entries shown.
Reply with just the number (in nm).

Quick one: association response for IgG1-CD134-ABBV368 (antibody, INN chains, looked up, V domains shown, IgG1) VH: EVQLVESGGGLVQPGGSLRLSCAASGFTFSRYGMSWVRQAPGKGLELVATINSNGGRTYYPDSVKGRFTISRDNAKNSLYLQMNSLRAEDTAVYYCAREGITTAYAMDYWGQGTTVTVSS VL: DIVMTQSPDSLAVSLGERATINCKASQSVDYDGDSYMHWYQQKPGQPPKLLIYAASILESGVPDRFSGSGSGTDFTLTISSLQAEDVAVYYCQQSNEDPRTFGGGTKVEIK ?
0.87

Quick one: association response for IgG1-CD134-GBR830 (antibody, INN chains, looked up, V domains shown, IgG1) VH: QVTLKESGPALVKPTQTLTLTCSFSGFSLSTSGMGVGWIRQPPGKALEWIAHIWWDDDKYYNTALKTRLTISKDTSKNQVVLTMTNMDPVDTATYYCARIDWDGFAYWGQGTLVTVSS VL: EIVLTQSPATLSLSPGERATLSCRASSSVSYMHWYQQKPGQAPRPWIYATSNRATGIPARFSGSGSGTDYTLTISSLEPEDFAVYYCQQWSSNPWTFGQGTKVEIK ?
0.84

Quick one: association response for IgG1-CD134-Hu106 (antibody, from another filing, V domains shown) VH: QVQLVQSGSELKKPGASVKVSCKASGYTFTDYSMHWVRQAPGQGLKWMGWINTETGEPTYADDFKGRFVFSLDTSVSTAYLQISSLKAEDTAVYYCANPYYDYVSYYAMDYWGQGTTVTVSS VL: DIQMTQSPSSLSASVGDRVTITCKASQDVSTAVAWYQQKPGKAPKLLIYSASYLYTGVPSRFSGSGSGTDFTFTISSLQPEDIATYYCQQHYSTPRTFGQGTKLEIK ?
0.8

Quick one: association response for IgG1-CD134-MEDI0562 (antibody, INN chains, looked up, V domains shown, IgG1) VH: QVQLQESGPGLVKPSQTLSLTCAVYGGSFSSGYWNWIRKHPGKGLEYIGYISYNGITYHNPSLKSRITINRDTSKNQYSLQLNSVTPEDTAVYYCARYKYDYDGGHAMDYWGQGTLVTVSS VL: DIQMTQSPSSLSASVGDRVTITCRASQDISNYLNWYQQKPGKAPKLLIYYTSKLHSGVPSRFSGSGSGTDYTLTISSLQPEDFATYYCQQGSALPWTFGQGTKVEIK ?
0.82

Quick one: association response for IgG1-CD134-RG7888 (antibody, INN chains, looked up, V domains shown, IgG1) VH: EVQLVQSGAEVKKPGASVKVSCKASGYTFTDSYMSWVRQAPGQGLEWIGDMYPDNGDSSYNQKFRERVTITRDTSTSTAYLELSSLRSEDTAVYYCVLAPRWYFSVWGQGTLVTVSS VL: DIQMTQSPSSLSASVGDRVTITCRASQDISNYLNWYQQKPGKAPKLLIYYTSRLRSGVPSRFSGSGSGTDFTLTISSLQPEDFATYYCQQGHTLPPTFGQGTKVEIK ?
0.54
